Target: T1, Human PDGF-BB (human, UniProt P01127 82-190)
T1 construct: Dimer of two B chains; also called hPDGF-BB; huPDGF-BB
T1 sequence (P01127 82-190 limits assumed): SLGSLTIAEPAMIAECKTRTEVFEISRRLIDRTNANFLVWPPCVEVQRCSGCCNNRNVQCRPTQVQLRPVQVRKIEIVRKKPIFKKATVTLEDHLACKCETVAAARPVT
Test: Biacore SPR, antibody captured by anti-human Fc, PDGF-BB as analyte
Would you kindly list pKd for each of these binders?
pKd here is simply -log10 of the concentration when that concentration is written in mol/L.

Inquiry: Any idea what its pKd is? The binder is CL-33805-IgG (antibody, V domains shown) VH: EVTLRESGPALVKPTQTLTLTCTFSGFSLSTYGMGVGWIRQPPGKALEWLANIWWDDDKYYNPSLKNRLTISKDTSKNQVVLTMTNMDPVDTATYYCARIESHWWSYAFDYWGQGTMVTVSS VL: EIVLTQSPGTLSLSPGERATLSCERSSGSNYDTYVSWYQQKPGQAPRLLIYADDLRASGIPDRFSGSGSGTDFTLTISRLEPEDFAVYYCQSYGIETDIVFGGGTKVEIK
Reply text: 12.68

Inquiry: Any idea what its pKd is? The binder is CL-33683-IgG (antibody, V domains shown) VH: EVTLRESGPALVKPTQTLTLTCTFSGFSLSTYGMGVGWIRQPPGKALEWLANIWWDDDKYYNPSLKNRLTISKDTSKNQVVLTMTNMDPVDTATYYCARIETIGPKYSFDYWGQGTMVTVSS VL: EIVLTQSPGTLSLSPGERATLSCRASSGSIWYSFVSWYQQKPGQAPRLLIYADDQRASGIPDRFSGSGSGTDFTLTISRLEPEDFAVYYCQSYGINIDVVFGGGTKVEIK
Reply text: 12.36
